Could you please report measured IC50 for the items listed next?
assayed.system: KRAS G12C (Homo sapiens, UniProt P01116+P62937, G12C)
Sequence (P01116 1-169 isoform P01116-2 G12C): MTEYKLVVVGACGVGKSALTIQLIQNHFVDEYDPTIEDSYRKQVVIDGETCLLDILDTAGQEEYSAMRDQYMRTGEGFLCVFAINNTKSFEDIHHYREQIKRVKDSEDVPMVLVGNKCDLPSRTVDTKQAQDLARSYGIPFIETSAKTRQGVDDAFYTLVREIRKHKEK
Sequence (P62937 whole entry): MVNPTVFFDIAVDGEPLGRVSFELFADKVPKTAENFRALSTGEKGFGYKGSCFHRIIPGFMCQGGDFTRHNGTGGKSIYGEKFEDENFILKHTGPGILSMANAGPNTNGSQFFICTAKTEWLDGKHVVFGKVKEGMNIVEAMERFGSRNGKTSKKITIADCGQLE
procedure.details: Disruption of BRAF RBD interaction with Ras (FRET / MOA assay, with Cyclophilin A)
Format: biochemical
assay.conditions: KRAS G12C; read-out: KRAS G12C FRET data IC50

Give IC50 for all molecules that follow.
1. C=CC(=O)N1CCO[C@H]2CCN(C(=O)N(C)[C@H](C(=O)N[C@H]3Cc4nc(cs4)-c4ccc5c(c4)c(c(-c4cccnc4[C@H](C)OC)n5CC)CC(C)(C)COC(=O)C4CCCN(N4)C3=O)C(C)C)C[C@@H]21 (stereo partly drawn)
2. C=CC(=O)N1CCOC2(CCN(C(=O)N(C)[C@H](C(=O)N[C@H]3Cc4cc(CF)cc(c4)-c4ccc5c(c4)c(c(-c4cccnc4[C@H](C)OC)n5CC(F)(F)F)CC(C)(C)COC(=O)C4CCCN(N4)C3=O)C(C)C)CC2)C1 (stereo partly drawn)
3. C=CC(=O)N1CC[C@H](C(=O)N(C)[C@H](C(=O)N[C@H]2Cc3cc(O)cc(c3)-c3ccc4c(c3)c(c(-c3nccnc3COC)n4CC)CC(C)(C)COC(=O)[C@@H]3CCCN(N3)C2=O)C(C)C)C1
4. CCn1c(-c2cccnc2[C@H](C)OC)c2c3cc(ccc31)-c1cccc(c1)C[C@H](NC(=O)[C@@H](CN1CC[C@]3(CCN(C(=O)C#C[C@H]4COCCN4C)C3)C1=O)C(C)C)C(=O)N1CCCC(N1)C(=O)OCC(C)(C)C2 (stereo partly drawn)
5. C=CC(=O)N1CCO[C@H]2CN(C(=O)N(C)[C@H](C(=O)N[C@H]3CN4CCC=C(C4)c4ccc5c(c4)c(c(-c4cccnc4[C@H](C)OC)n5CC)CC(C)(C)COC(=O)[C@@H]4CCCN(N4)C3=O)C(C)C)C[C@H]21
6. CCn1c(-c2cncnc2)c2c3cc(ccc31)-c1cc(O)cc(c1)C[C@H](NC(=O)[C@H](C(C)C)N(C)C(=O)[C@H]1CCN(C(=O)C#CCN(C)C)C1)C(=O)N1CCC[C@H](N1)C(=O)OCC(C)(C)C2

Given back:
< 10 nM
100 to 1000 nM
1000 to 10000 nM
10 to 100 nM
10 to 100 nM
< 10 nM
